- assayed-target: hPolεCD (DNA polymerase ε catalytic domain, exo-) (Homo sapiens, UniProt Q07864 27-1172, D275N;E277Q;del185-209)
- Sequence (Q07864 other isoform, or with tags, fused parts or gaps D275N;E277Q;del185-209): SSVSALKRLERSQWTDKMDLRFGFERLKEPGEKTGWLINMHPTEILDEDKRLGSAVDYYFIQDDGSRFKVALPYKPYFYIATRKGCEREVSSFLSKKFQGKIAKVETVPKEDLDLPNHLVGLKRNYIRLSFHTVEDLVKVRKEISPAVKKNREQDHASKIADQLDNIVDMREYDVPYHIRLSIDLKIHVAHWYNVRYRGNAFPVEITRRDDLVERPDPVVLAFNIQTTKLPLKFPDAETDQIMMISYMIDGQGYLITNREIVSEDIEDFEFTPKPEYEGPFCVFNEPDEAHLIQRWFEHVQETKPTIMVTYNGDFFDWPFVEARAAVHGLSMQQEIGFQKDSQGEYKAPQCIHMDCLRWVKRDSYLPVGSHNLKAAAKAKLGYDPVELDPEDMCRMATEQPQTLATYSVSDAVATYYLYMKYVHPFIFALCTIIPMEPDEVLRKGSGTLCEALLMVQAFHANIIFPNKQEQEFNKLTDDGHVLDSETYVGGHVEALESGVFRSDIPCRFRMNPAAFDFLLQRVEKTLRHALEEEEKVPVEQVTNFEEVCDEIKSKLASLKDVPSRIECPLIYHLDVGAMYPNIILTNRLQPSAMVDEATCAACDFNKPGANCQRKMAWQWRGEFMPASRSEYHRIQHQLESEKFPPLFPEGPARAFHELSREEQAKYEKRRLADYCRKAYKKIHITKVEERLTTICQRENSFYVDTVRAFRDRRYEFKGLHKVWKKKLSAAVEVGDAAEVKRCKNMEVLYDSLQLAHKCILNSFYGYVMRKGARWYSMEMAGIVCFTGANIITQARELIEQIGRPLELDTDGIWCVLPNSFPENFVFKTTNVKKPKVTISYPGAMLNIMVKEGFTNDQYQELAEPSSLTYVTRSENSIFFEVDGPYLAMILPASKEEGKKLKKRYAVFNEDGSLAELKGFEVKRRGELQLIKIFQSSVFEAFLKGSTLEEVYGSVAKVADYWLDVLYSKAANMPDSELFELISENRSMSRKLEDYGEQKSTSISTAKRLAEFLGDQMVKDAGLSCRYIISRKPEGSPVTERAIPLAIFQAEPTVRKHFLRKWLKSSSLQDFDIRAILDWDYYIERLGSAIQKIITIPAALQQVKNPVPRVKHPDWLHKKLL
- experiment-summary: BLI; 125 mM NaCl, no dTTP/Mg2+; BLI (Octet K2): 30 mM Tris-Hepes pH 7.8, 100-150 mM NaCl, 2 mM TCEP, 0.002% Tween 20, 23 °C; EMSA: 20 mM Tris-Hepes pH 7.8, 100 mM NaCl, 2% glycerol, 2 mM TCEP, 0.2 mg/mL BSA, room temperature
- experimental-context: protein: recombinant; tags: none in final protein (N-terminal His6-Sumo cleaved); label: 5' BiotinTEG on template; template 5' overhang 9 nt and 3' overhang 3 nt

| binder | Kd |
| --- | --- |
| D11 template:primer (dsDNA, primer 3'-terminal 2',3'-dideoxy-C) DNA 1: AATACATAAGCGCTCCAGGCAAT DNA 2: GCCTGGAGCGC | 532 nM |
